Field: Mean Peak APTT. Provide a value for each of the compounds that follow.
- assay-name: In vivo delivery of heparin by oral administration in rats (APTT)
- assay-context: carrier dose 300 mg/kg, heparin dose 100 mg/kg
One number for each entry, in s.

Batch: Mean Peak APTT for all items listed.
1. O=C(O)CCCNC(=O)C1CCCCC1
2. O=C(O)CCCNC(=O)C1CCCCCC1
3. CCC(C(=O)NCCCC(=O)O)C1CCCCC1 (stereo not shown)
4. O=C(O)CCCCCCCNC(=O)c1ccccc1O

1: 87.4; 2: 25.45; 3: 38.64; 4: 119.99

###

- assay-context: rat, in vivo, 100 mg/kg
endpoint-label: Peak Serum [PTH] (pg/mL)
One number for each entry, in pg/mL.

smiles-input: COc1ccccc1/C=C/C(=O)Nc1ccc(CCCC(=O)O)cc1
unit-of-measurement: pg/mL
Peak Serum [PTH]: 70

Quick request: Peak Serum [PTH] for each listed item, please.
1. COc1ccccc1/C=C/C(=O)Nc1ccc(CCC(=O)O)cc1
2. O=C(O)CCCc1ccc(NC(=O)CCOc2ccccc2)cc1
3. CN(C)c1cccc(C(=O)Nc2ccc(CCCC(=O)O)cc2)c1

1: 40; 2: 115; 3: 145
